Each entry below carries its reported Cytotoxicity LC50/GI50 Hela cells.
System: HELA cells (Acc57)
Experiment: Cytotoxicity assay (MTT reduction), HELA cells
Assay type: cell-based
Conditions: Hela cells
Protocol: The cytotoxicity of the peptides to HELA cells (Acc57) and COS-7 cells (CRL-1651) was determined using the MTT reduction assay [see ref. 2 and 3, below]. […] At this point, time zero (Tz) was determined by MTT reduction (see below). […] The absorbance at 595 nm of the solubilized product was measured (OD595peptide). For each concentration averages were calculated from triplicates. […]
Where a SMILES comes first, the peptide text is derived from it.

Compound	Cytotoxicity LC50/GI50 Hela cells / µM
CCCC[C@@H]1NC(=O)[C@@H]2CCCN2C(=O)[C@H]2CCCN2C(=O)[C@H](Cc2ccc(O)cc2)NC(=O)[C@@H]2CSSC[C@H](NC1=O)C(=O)N[C@@H]([C@@H](C)O)C(=O)N[C@@H](C)C(=O)N[C@@H](CO)C(=O)N[C@@H](CC1CCCCC1)C(=O)N1CCC[C@H]1C(=O)N1CCC[C@H]1C(=O)N[C@@H](CCC(N)=O)C(=O)N2 [Ex. 141] (HELM PEPTIDE1{[Nle].C.T.A.S.[Cha].P.P.Q.C.Y.[dP].P}$PEPTIDE1,PEPTIDE1,2:R3-10:R3|PEPTIDE1,PEPTIDE1,1:R1-13:R2$$$V2.0)	56
CC[C@H](C)[C@@H]1NC(=O)[C@@H]2CCCN2C(=O)[C@@H]2CCCN2C(=O)[C@H](CC(=O)O)NC(=O)[C@H](CO)NC(=O)[C@H](CCCCN)NC(=O)[C@H]([C@@H](C)O)NC(=O)[C@@H]2CSSC[C@H](NC1=O)C(=O)N[C@@H](Cc1ccc(O)cc1)C(=O)N1CCC[C@@H]1C(=O)N1CCC[C@H]1C(=O)N[C@@H](CC1CCCCC1)C(=O)N2 [Ex. 36] (HELM PEPTIDE1{[Cha].C.T.K.S.D.P.P.I.C.Y.[dP].P}$PEPTIDE1,PEPTIDE1,2:R3-10:R3|PEPTIDE1,PEPTIDE1,1:R1-13:R2$$$V2.0)	83
CC[C@H](C)[C@@H]1NC(=O)[C@@H]2CCCN2C(=O)[C@H]2CCCN2C(=O)[C@H](CCCNC(=N)N)NC(=O)[C@@H]2CSSC[C@H](NC1=O)C(=O)N[C@@H]([C@@H](C)O)C(=O)N[C@@H](CCCCN)C(=O)N[C@@H](CO)C(=O)N[C@@H](CC(=O)O)C(=O)N1CCC[C@H]1C(=O)N1CCC[C@H]1C(=O)N[C@@H](CC1CCCCC1)C(=O)N2 [Ex. 20] (HELM PEPTIDE1{I.C.T.K.S.D.P.P.[Cha].C.R.[dP].P}$PEPTIDE1,PEPTIDE1,2:R3-10:R3|PEPTIDE1,PEPTIDE1,1:R1-13:R2$$$V2.0)	100
CCCC[C@@H]1NC(=O)[C@@H]2CCCN2C(=O)[C@H]2CCCN2C(=O)[C@H](Cc2ccc(O)cc2)NC(=O)[C@@H]2CSSC[C@H](NC1=O)C(=O)N[C@@H]([C@@H](C)O)C(=O)N[C@@H](C)C(=O)N[C@@H](CO)C(=O)N[C@@H](CC1CCCC1)C(=O)N1CCC[C@H]1C(=O)N1CCC[C@H]1C(=O)N[C@@H](CCC(N)=O)C(=O)N2 [Ex. 112] (HELM PEPTIDE1{[Nle].C.T.A.S.[O=C([C@H](CC1CCCC1)N[*:1])[*:2]].P.P.Q.C.Y.[dP].P}$PEPTIDE1,PEPTIDE1,2:R3-10:R3|PEPTIDE1,PEPTIDE1,1:R1-13:R2$$$V2.0)	33
CCCC[C@@H]1NC(=O)[C@@H]2CCCN2C(=O)[C@H]2CCCN2C(=O)[C@H]([C@@H](C)O)NC(=O)[C@@H]2CSSC[C@H](NC1=O)C(=O)N[C@@H]([C@@H](C)O)C(=O)N[C@@H](CCCCN)C(=O)N[C@@H](CO)C(=O)N[C@@H](CC(=O)O)C(=O)N1CCC[C@H]1C(=O)N1CCC[C@H]1C(=O)N[C@@H]([C@@H](C)CC)C(=O)N2 [Ex. 42] (HELM PEPTIDE1{[Nle].C.T.K.S.D.P.P.I.C.T.[dP].P}$PEPTIDE1,PEPTIDE1,2:R3-10:R3|PEPTIDE1,PEPTIDE1,1:R1-13:R2$$$V2.0)	87
CCCC[C@@H]1NC(=O)[C@@H]2CCCN2C(=O)[C@H]2CCCN2C(=O)[C@H](CC2CCCCC2)NC(=O)[C@@H]2CSSC[C@H](NC1=O)C(=O)N[C@@H]([C@@H](C)O)C(=O)N[C@@H](C)C(=O)N[C@@H](CO)C(=O)N[C@@H]([C@@H](C)CC)C(=O)N1CCC[C@H]1C(=O)N1CCC[C@H]1C(=O)N[C@@H](CCC(N)=O)C(=O)N2 [Ex. 97] (HELM PEPTIDE1{[Nle].C.T.A.S.I.P.P.Q.C.[Cha].[dP].P}$PEPTIDE1,PEPTIDE1,2:R3-10:R3|PEPTIDE1,PEPTIDE1,1:R1-13:R2$$$V2.0)	100
CC[C@H](C)[C@@H]1NC(=O)[C@@H]2CCCN2C(=O)[C@@H]2CCCN2C(=O)[C@H](CC(=O)O)NC(=O)[C@H](CO)NC(=O)[C@H](CCCCN)NC(=O)[C@H]([C@@H](C)O)NC(=O)[C@@H]2CSSC[C@H](NC1=O)C(=O)N[C@@H](CC(N)=O)C(=O)N1CCC[C@@H]1C(=O)N1CCC[C@H]1C(=O)N[C@@H](C1CCCCC1)C(=O)N2 [Ex. 37] (HELM PEPTIDE1{[O=C([C@@H](N[*:1])C1CCCCC1)[*:2]].C.T.K.S.D.P.P.I.C.N.[dP].P}$PEPTIDE1,PEPTIDE1,2:R3-10:R3|PEPTIDE1,PEPTIDE1,1:R1-13:R2$$$V2.0)	92
CCCC[C@@H]1NC(=O)[C@@H]2CCCN2C(=O)[C@@H]2CCCN2C(=O)[C@H](CC(=O)O)NC(=O)[C@H](CO)NC(=O)[C@H](CCCCN)NC(=O)[C@H]([C@@H](C)O)NC(=O)[C@@H]2CSSC[C@H](NC1=O)C(=O)N[C@@H](CO)C(=O)N1CCC[C@@H]1C(=O)N1CCC[C@H]1C(=O)N[C@@H](Cc1ccccc1)C(=O)N2 [Ex. 15] (HELM PEPTIDE1{F.C.T.K.S.D.P.P.[Nle].C.S.[dP].P}$PEPTIDE1,PEPTIDE1,2:R3-10:R3|PEPTIDE1,PEPTIDE1,1:R1-13:R2$$$V2.0)	100

* * *

Molecular target: CathepsinG, from human neutrophils (Homo sapiens)
Sequence (P08311 21-244): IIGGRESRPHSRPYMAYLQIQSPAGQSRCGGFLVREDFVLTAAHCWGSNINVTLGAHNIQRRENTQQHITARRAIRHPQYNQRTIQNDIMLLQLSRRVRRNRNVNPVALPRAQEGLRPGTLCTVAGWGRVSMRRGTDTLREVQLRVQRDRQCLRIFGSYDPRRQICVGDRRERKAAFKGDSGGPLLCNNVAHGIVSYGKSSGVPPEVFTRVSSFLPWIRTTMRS
Experiment: Enzymatic assay, cathepsin G
Settings: at 100 μM (stated in cell instead of IC50)
Where a SMILES comes first, the peptide text is derived from it.

Compound	Cathepsin G at 100 μM % [at 100%]
CCCC[C@@H]1NC(=O)[C@@H]2CCCN2C(=O)[C@H]2CCCN2C(=O)[C@H](CCC(N)=O)NC(=O)[C@@H]2CSSC[C@H](NC1=O)C(=O)N[C@@H]([C@@H](C)O)C(=O)N[C@@H](C)C(=O)N[C@@H](CO)C(=O)N[C@@H]([C@@H](C)CC)C(=O)N1CCC[C@H]1C(=O)N1CCC[C@H]1C(=O)N[C@@H](CCC(N)=O)C(=O)N2 [Ex. 91] (HELM PEPTIDE1{[Nle].C.T.A.S.I.P.P.Q.C.Q.[dP].P}$PEPTIDE1,PEPTIDE1,2:R3-10:R3|PEPTIDE1,PEPTIDE1,1:R1-13:R2$$$V2.0)	45
CCCC[C@@H]1NC(=O)[C@H](CCC(=O)O)NC(=O)[C@@H](CCCCN)NC(=O)[C@H](Cc2ccc(O)cc2)NC(=O)[C@@H]2CSSC[C@H](NC1=O)C(=O)N[C@@H]([C@@H](C)O)C(=O)N[C@@H](C)C(=O)N[C@@H](CO)C(=O)N[C@@H]([C@@H](C)CC)C(=O)N1CCC[C@H]1C(=O)N1CCC[C@H]1C(=O)N[C@@H](CCC(N)=O)C(=O)N2 [Ex. 127] (HELM PEPTIDE1{[Nle].C.T.A.S.I.P.P.Q.C.Y.[dK].E}$PEPTIDE1,PEPTIDE1,2:R3-10:R3|PEPTIDE1,PEPTIDE1,1:R1-13:R2$$$V2.0)	64
CCCC[C@@H]1NC(=O)[C@@H]2CCCN2C(=O)[C@H]2CCCN2C(=O)[C@H](Cc2ccc(O)cc2)NC(=O)[C@H](CCCCN)NC(=O)[C@H](CCC(N)=O)NC(=O)[C@@H]2CCCN2C(=O)[C@@H]2CCCN2C(=O)[C@H]([C@@H](C)CC)NC(=O)[C@H](CO)NC(=O)[C@H](C)NC(=O)[C@H]([C@@H](C)O)NC(=O)[C@H](CCC(=O)O)NC1=O [Ex. 104] (HELM PEPTIDE1{[Nle].E.T.A.S.I.P.P.Q.K.Y.[dP].P}$PEPTIDE1,PEPTIDE1,1:R1-13:R2$$$V2.0)	53.5
